Cited source for all entries: ChEMBL document CHEMBL1764955

# target_entity: Protein kinase C alpha type (Homo sapiens, UniProt P17252)
pIC50: −log10 of the molar value.
readout: pIC50

P: CN(C)CCCn1cc(NC(=O)Nc2nccc(-c3ccccc3)n2)c2ccccc21
Q: CCN(CC)CCCn1cc(NC(=O)Nc2ccnc(-c3ccccc3)n2)c2ccccc21
R: CCN(CC)CCCn1cc(NC(=O)Nc2cccc(-c3ccccc3)n2)c2ccccc21
Sort key = pIC50. Sort direction = ascending. Apply to the list above. Note for the reader: the ranking is given by listing the labels in the order requested.
Q, R, P
